- Test system: Plasmodium falciparum
- experimental-protocol: GSK_TCMDC: Inhibition of Plasmodium falciparum Dd2 in whole red blood cells, using parasite LDH activity as an index of growth. Test compounds present at 2uM
- Assay type: functional
measurement-kind: Inhibition (%)
The answer is to be given in %; state only the numeric part.

Prompt: Name the recorded Inhibition of the item OC(COCc1ccc(-c2ccccc2)cc1)CN1CCCCC1 (centres undefined) in your answer.
Completion: 75

Prompt: Answer with the recorded Inhibition of CN1CCN(c2nsc3ccc(-c4ccc(NC(=O)Nc5cc(C(F)(F)F)ccc5F)cc4)cc23)CC1.O=C(O)C(F)(F)F only.
Completion: 64

Prompt: Give the measured Inhibition for COc1ccc(CN2CCC(N3CCc4cc(NC(=O)c5cc(C)on5)ccc43)C2)cc1Cl (centres undefined)
Completion: 91

Prompt: Using known records, supply Inhibition for CS(=O)(=O)Nc1cccc(-c2cnc3[nH]cc(-c4ccc(C(=O)O)cc4)c3c2)c1
Completion: 82

Prompt: For the compound C#CCCC(=O)Nc1cccc(-c2cccc(-c3nc4cccc(C)c4[nH]3)c2)c1 , report Inhibition.
Completion: 29

Prompt: Consider the compound CS(=O)(=O)CCNCc1nc(-c2ccc3c(Nc4ccc(Cl)cc4F)ccnc3c2)cs1 . State its measured Inhibition.
Completion: 28

---

- Tested on: Plasmodium falciparum
- experimental-protocol: GSK_TCMDC: Inhibition of Plasmodium falciparum 3D7 in whole red blood cells, using parasite LDH activity as an index of growth. Test compounds present at 2uM
- Format: functional
measurement-kind: Inhibition (%)
Write down the numeric answer in % and omit the unit.

COc1ccc(-c2cnc(N)c(-c3ccc(C(N)=O)cc3)c2)cc1OC	96
N#Cc1nc2ccc(OCCN(Cc3ccccc3C(F)(F)F)c3ccc(C#N)c(C(F)(F)F)c3)cc2s1	93

Prompt: Fill in reported Inhibition for this entry: Cc1cc2c(NC(=O)NC3CCN(CCc4cccc(Cl)c4)CC3)cccc2cn1.Cl
Completion: 100

Prompt: Report measured Inhibition; entry is CC(C)C[C@@H](/C=N/N1CCNC1=O)NC(=O)[C@H](CC(C)C)NC(=O)c1ccc(OCCN2CCOCC2)cc1
Completion: 97

Prompt: Fill in Inhibition for record CN(C)CCN(C)Cc1ccc(-c2ccc3c(Nc4ccc(Oc5ccccc5)cc4)ccnc3c2)o1
Completion: 100

Prompt: Write down Inhibition measured for item O=C(Nc1ccc(Cl)cc1)c1cccc(CN2CCCN(Cc3cccc(O)c3)CC2)c1.O=C(O)C(F)(F)F
Completion: 98

Prompt: Using known records, supply Inhibition for Cc1nnsc1C(=O)Nc1cccc(-c2ccc(-c3nc4cc(F)ccc4[nH]3)cc2)c1
Completion: 100

Prompt: Input CN(Cc1ccccc1)C(=O)CCNS(=O)(=O)c1cc(Br)cnc1N , output reported Inhibition.
Completion: 91

Prompt: Look up Inhibition of COC(=O)c1cccc(CNCc2ccc(-c3ccc(-c4nc5ccccc5[nH]4)s3)cc2)c1.O=C(O)C(F)(F)F and report it.
Completion: 100

---

The entries below are paired with their reported Inhibition.
- System: HepG2
- experimental-protocol: GSK_TCMDC: Percent inhibition of human HepG2 cell line. Test compounds present at 10uM.
- Format: functional
Remember to quote the unit after the number.

Would you please look over these solved cases?
Br.CC1(C)NC(N)=NC(=N)N1OCCSc1ccc(Cl)c(Cl)c1	65%
CN1CCN(c2ccc(Nc3c(C(N)=O)cnc4cc(-c5ccoc5)ccc34)cc2)CC1.Cl	14%
O=C(CC1SC(N2N=C(c3cccs3)CC2c2ccccc2)=NC1=O)Nc1ccc(Cl)cc1 (stereo not given)	18%
COc1cc(Cc2cnc(N)nc2N)cc(OCCCN2C(=O)c3ccccc3C2=O)c1OC	0%

Here is another compound to look at.
Prompt: Write down Inhibition measured for item O=C(Nc1cccc(-c2cccc(-c3nc4cc(C(F)(F)F)ccc4[nH]3)c2)c1)c1ccc(=O)[nH]n1
Completion: 63%
